Where do the numbers come from? From patent US20250145594A1.

Test system: ATF4 luciferase reporter in HEK293T cells
runDescription: ATF4-Luc assay (in vitro model of VWMD)
Assay type: cell-based, human
assaySetup: Homo sapiens, HEK-293T, 7 h, HEK293T cells carrying the ATF4 luciferase reporter, 1 μg/mL tunicamycin, One Glo luminescence
pEC50: −log10 of the molar value.
Some compounds, each annotated with its measured pEC50.

These solved cases illustrate the format of a correct answer.
{"compound": "O=C(CO[C@H]1C[C@@H](OC(F)(F)F)C1)NC12CCC(NC(=O)[C@H]3C[C@@H](O)c4cc(Cl)ccc4O3)(CC1)C[C@@H]2O", "target": "ATF4 luciferase reporter in HEK293T cells", "recordedMeasurement": "> 8.00"}
{"compound": "O=C(NC12CC(n3cc(OCCOC(F)(F)F)cn3)(C1)C2)[C@@H]1C[C@@H](O)c2cc(Cl)c(Cl)cc2O1", "target": "ATF4 luciferase reporter in HEK293T cells", "recordedMeasurement": "> 8.00"}
{"compound": "O=C(NC12CC(n3cc(-c4ccc(OC(F)(F)F)cn4)cn3)(C1)C2)[C@H]1C[C@H](O)c2cc(C(F)(F)F)ccc2O1", "target": "ATF4 luciferase reporter in HEK293T cells", "recordedMeasurement": "> 8.00"}

Request: Using known records, supply pEC50 for O=C(COc1ccc(Cl)c(F)c1)N[C@H]1CC[C@H](n2cc(-c3ccc(C(F)(F)F)cn3)cn2)CC1
Response: > 8.00

* * *

Tested on: ATF4 luciferase reporter in HEK293T cells
runDescription: ATF4-Luc assay (in vitro model of VWMD)
Type: cell-based, human
assaySetup: Homo sapiens, HEK-293T, 7 h, HEK293T cells carrying the ATF4 luciferase reporter, 1 μg/mL tunicamycin, One Glo luminescence
readoutName: EC50

These solved cases illustrate the format of a correct answer.
{"compound": "O=C(NC12CC(n3cc(-c4ccc(C(F)F)cn4)cn3)(C1)C2)[C@H]1C[C@@H](O)c2cc(Cl)c(F)cc2O1", "readoutName": "EC50", "recordedMeasurement": "< 0.01 µM"}
{"compound": "O=C(NC12CC(c3cn(-c4ccc(Cl)c(F)c4)nn3)(C1)C2)[C@H]1C[C@@H](O)c2cc(Cl)ccc2O1", "readoutName": "EC50", "recordedMeasurement": "< 0.01 µM"}
{"compound": "O=C(NC12CC(c3ccc(C(=O)N4CC[C@H](OC(F)(F)F)C4)cn3)(C1)C2)[C@H]1C[C@@H](O)c2cc(Cl)ccc2O1", "readoutName": "EC50", "recordedMeasurement": "0.01 to 0.05 µM"}
{"compound": "O=C(NC12CC(n3cc(N4CC[C@@H](OC(F)F)C4)cn3)(C1)C2)[C@H]1C[C@@H](O)c2cc(Cl)ccc2O1", "readoutName": "EC50", "recordedMeasurement": "0.05 to 0.25 µM"}
{"compound": "O=C(N[C@H]1CC[C@H](n2cc(-c3ccc(C(F)(F)F)cn3)cn2)CC1)[C@H]1C[C@@H](O)c2cc(Cl)c(F)cc2O1", "readoutName": "EC50", "recordedMeasurement": "< 0.01 µM"}

Request: Using known records, supply EC50 for O=C(COc1ccc(Cl)c(F)c1)NC12CC(c3ccc(C(=O)N4CC(COC(F)(F)F)C4)nc3)(C1)C2
Response: < 0.01 µM

Request: Using known records, supply EC50 for O=C(CO[C@H]1C[C@@H](OC(F)(F)F)C1)N[C@H]1C[C@H]2C[C@@H]1C[C@@H]2NC(=O)[C@@H]1C[C@@H](O)c2cc(Cl)ccc2O1
Response: 0.05 to 0.25 µM

Request: Using known records, supply EC50 for O=C(NC12CC(c3ccnc(OCCOC(F)(F)F)n3)(C1)C2)[C@H]1C[C@@H](O)c2cc(Cl)ccc2O1
Response: 0.01 to 0.05 µM

Request: Using known records, supply EC50 for O=C(NC12CC(n3cc(-c4ccc(C(F)(F)F)cn4)cn3)(C1)C2)[C@@H]1CNc2cc(Cl)ccc2O1
Response: 0.01 to 0.05 µM

Request: Using known records, supply EC50 for O=C(NC12CC(n3cc(-c4ccc(C(F)(F)F)cn4)cn3)(C1)C2)[C@H]1C[C@H](O)c2cc(Cl)ccc2O1
Response: 0.01 to 0.05 µM

Request: Using known records, supply EC50 for O=C(NC12CC(n3cc4cc(COCC(F)(F)F)ccc4n3)(C1)C2)[C@H]1C[C@@H](O)c2cc(Cl)ccc2O1
Response: < 0.01 µM

Request: Using known records, supply EC50 for O=C(NC12CC(n3cc(O[C@H]4C[C@H](OC(F)(F)F)C4)cn3)(C1)C2)[C@H]1C[C@@H](O)c2cc(Cl)ccc2O1
Response: < 0.01 µM

Request: Using known records, supply EC50 for O=C(NC12CC(n3cc(-c4ccc(OC(F)(F)F)cn4)cn3)(C1)C2)[C@H]1C[C@@H](O)c2cc(F)ccc2O1 (racemic) [Compound 552]
Response: < 0.01 µM

* * *

Tested on: ATF4 luciferase reporter in HEK293T cells
runDescription: ATF4-Luc assay (in vitro model of VWMD)
Type: cell-based, human
assaySetup: Homo sapiens, HEK-293T, 7 h, HEK293T cells carrying the ATF4 luciferase reporter, 1 μg/mL tunicamycin, One Glo luminescence
readoutName: EC50

These solved cases illustrate the format of a correct answer.
{"compound": "O=C(NC12CC(n3cc(OCCCOC(F)(F)F)cn3)(C1)C2)[C@H]1C[C@@H](O)c2cc(Cl)c(F)cc2O1", "target": "ATF4 luciferase reporter in HEK293T cells", "recordedMeasurement": "< 10 nM"}
{"compound": "O=C(NC12CC(n3cc(C(=O)N4CC[C@@H](COC(F)(F)F)C4)cn3)(C1)C2)[C@H]1C[C@@H](O)c2cc(Cl)ccc2O1", "target": "ATF4 luciferase reporter in HEK293T cells", "recordedMeasurement": "50 to 250 nM"}

Request: Using known records, supply EC50 for O=C(CO[C@H]1C[C@@H](OC(F)(F)F)C1)NC12CC(NC(=O)[C@H]3C[C@@H](O)c4cc(Cl)ccc4O3)(C1)C2 [Compound 164]
Response: < 10 nM

* * *

Tested on: ATF4 luciferase reporter in HEK293T cells
runDescription: ATF4-Luc assay (in vitro model of VWMD)
Type: cell-based, human
assaySetup: Homo sapiens, HEK-293T, 7 h, HEK293T cells carrying the ATF4 luciferase reporter, 1 μg/mL tunicamycin, One Glo luminescence
readoutName: EC50

These solved cases illustrate the format of a correct answer.
{"molecule": "O=C(NC12CC(n3cnc(C(=O)N4CCC[C@@H](OC(F)(F)F)C4)c3)(C1)C2)[C@H]1C[C@@H](O)c2cc(Cl)ccc2O1", "target": "ATF4 luciferase reporter in HEK293T cells", "EC50": "250 to 500 nM"}
{"molecule": "COc1ccc2nn(C34CC(NC(=O)[C@H]5C[C@@H](O)c6cc(Cl)ccc6O5)(C3)C4)cc2c1", "target": "ATF4 luciferase reporter in HEK293T cells", "EC50": "10 to 50 nM"}
{"molecule": "O=C(NC12CC(n3cc(-c4ccc(C(F)(F)F)cn4)cn3)(C1)C2)C1CNc2cc(Cl)c(F)cc2O1 (stereo not shown)", "target": "ATF4 luciferase reporter in HEK293T cells", "EC50": "< 10 nM"}

Consider the additional molecule presented here.
Request: Using known records, supply EC50 for O=C(NC12CC(n3cc(OC[C@H]4C[C@H](OC(F)(F)F)C4)cn3)(C1)C2)[C@H]1C[C@@H](O)c2cc(Cl)ccc2O1
Response: < 10 nM

* * *

Some compounds, each annotated with its measured EC50.
System: ATF4 luciferase reporter in HEK293T cells
runDescription: ATF4-Luc assay (in vitro model of VWMD)
Type: cell-based, human
assaySetup: Homo sapiens, HEK-293T, 7 h, HEK293T cells carrying the ATF4 luciferase reporter, 1 μg/mL tunicamycin, One Glo luminescence

These solved cases illustrate the format of a correct answer.
{"compound": "O=C(NC12CC(n3cc(C(=O)N4CC[C@H](F)C4)cn3)(C1)C2)[C@H]1C[C@@H](O)c2cc(Cl)ccc2O1 [Compound 382]", "EC50": "50 to 250 nM"}
{"compound": "O=C(NC12CC(OCC(=O)N3CCC(OC(F)(F)F)C3)(C1)C2)[C@H]1C[C@@H](O)c2cc(Cl)ccc2O1 (stereo partly shown) [Compound 334]", "EC50": "50 to 250 nM"}
{"compound": "O=C(NC12CC(n3cc(O[C@H]4C[C@@H](COC(F)(F)F)C4)cn3)(C1)C2)[C@H]1C[C@@H](O)c2cc(Cl)ccc2O1 [Compound 589]", "EC50": "10 to 50 nM"}
{"compound": "COc1ccc2nn(C34CC(NC(=O)[C@H]5C[C@@H](O)c6cc(Cl)c(Cl)cc6O5)(C3)C4)cc2c1 [Compound 507]", "EC50": "< 10 nM"}
{"compound": "O=C(N[C@H]1CC[C@H](n2cc(N3CC[C@@H](OC(F)(F)F)C3)cn2)CC1)[C@H]1C[C@@H](O)c2cc(Cl)c(F)cc2O1 [Compound 582]", "EC50": "10 to 50 nM"}
{"compound": "O=C(CO[C@H]1C[C@@H](OC(F)(F)F)C1)NC12CCC(NC(=O)[C@@H]3C[C@@H](O)c4cc(Cl)ccc4O3)(CC1)C[C@@H]2O (single isomer, unassigned) [Compound 279]", "EC50": "< 10 nM"}

Request: Using known records, supply EC50 for O=C(NC12CC(n3cc(OCCOC(F)(F)F)cn3)(C1)C2)[C@H]1CNc2cc(Cl)ccc2O1 [Compound 518]
Response: 10 to 50 nM

Request: Using known records, supply EC50 for O=C(NC12CC(n3cc(-c4ccc(OC(F)(F)F)nc4)cn3)(C1)C2)[C@@H]1C[C@@H](O)c2cc(Cl)ccc2O1 [Compound 351]
Response: < 10 nM
